These entries and their values trace back to patent US8802858B2.

# test-description: Pharmacokinetic studies in xenografted mice (plasma and tumor)
# Assay type: in vivo, CD-1 Nu/Nu female mice
# stated-conditions: female, CD-1 Nu/Nu, mouse, plasma, iv; after i.v. 8 mg/kg Parent Drug, xenografted mice; read-out: T1/2 of Parent Drug in plasma (converted)
assay-endpoint: half-life (min)
Dear colleague, please return just the value in min, with no unit written.

Request: What measured half-life goes with N#CCCNc1nonc1-c1nc2ccccc2n1CC(=O)c1ccc(N)cc1 [Parent Drug, reference compound] ?
Response: 192

###

I'd appreciate it if you could supply solubility kinetic at 6 h values for the items below.
# test-description: Determination of kinetic solubility
# Assay type: physicochemical
# stated-conditions: aqueous buffer, kinetic from dmso stock, pH 6.5 buffer, 2.5% DMSO, room temperature, read-out: C eff
Dear colleague, please return just the value in µM, with no unit written.

Request: What measured solubility kinetic at 6 h goes with C[C@H](N)C(=O)Nc1ccc(C(=O)Cn2c(-c3nonc3NCCC#N)nc3ccccc32)cc1 [Example 2] ?
Response: 91

Request: Now consider N#CCCNc1nonc1-c1nc2ccccc2n1CC(=O)c1ccc(NC(=O)CN)cc1 [Example 3] .
Response: 106

Request: Now consider CC(C)C[C@H](N)C(=O)Nc1ccc(C(=O)Cn2c(-c3nonc3NCCC#N)nc3ccccc32)cc1 [Example 11] .
Response: 20

Request: Now consider N#CCCNc1nonc1-c1nc2ccccc2n1CC(=O)c1ccc(NC(=O)[C@@H](N)CCCCN)cc1 [Example 1] .
Response: 190
